# key: entry, value: log10 of IC50
Tested on: HeLa
assay: Antiproliferative activity against human HeLa cells assessed as reduction in cell viability after 72 hrs by MTT assay
Format: functional, cell-based
Give log10 of IC50, with IC50 taken in µM.

| smiles-string | study-target | measured |
| --- | --- | --- |
| COc1cc(-c2nccn2-c2cccc([N+](=O)[O-])c2)cc(OC)c1OC | HeLa | 0.83 |
| COc1cc(-c2nccn2-c2cccc3ccccc23)cc(OC)c1OC | HeLa | 1.49 |
| COc1ccc(-n2ccnc2-c2cc(OC)c(OC)c(OC)c2)cc1[N+](=O)[O-] | HeLa | 0.40 |

Provide only the value of recorded log10 of IC50 for COc1cc(OC)cc(-n2ccnc2-c2cc(OC)c(OC)c(OC)c2)c1 1.62

Provide only the value of recorded log10 of IC50 for COc1ccc(-n2ccnc2-c2cc(OC)c(OC)c(OC)c2)cc1 0.08

###

Tested on: MDA-MB-231
assay: Antiproliferative activity against human MDA-MB-231 cells assessed as reduction in cell viability after 72 hrs by MTT assay
Format: functional, cell-based
recorded-conditions: MDA-MB-231, 72 h
measured-property: IC50

Provide only the value of recorded IC50 for COc1ccc(C(=O)Nc2cc(OC)c(OC)c(OC)c2)cc1N 94.2 µM

Provide only the value of recorded IC50 for COc1ccc(/C=C\c2cc(OC)c(OC)c(OC)c2)cc1O 0.0135 µM

Provide only the value of recorded IC50 for COc1cc(-c2nccn2-c2cccc([N+](=O)[O-])c2)cc(OC)c1OC > 100 µM

###

assay: 1-Octanol/water partition coefficient, log P of compound at 1 mg after 1 hr by HPLC analysis
Format: physicochemical
measured-property: logP at 1 h
Please respond with just the number, no unit label.

Provide only the value of recorded logP at 1 h for COc1ccc(-n2ccnc2-c2cc(OC)c(OC)c(OC)c2)cc1N 1.77

###

Tested on: HCT-15
assay: Antiproliferative activity against human HCT15 cells assessed as reduction in cell viability after 72 hrs by MTT assay
Format: functional, cell-based
recorded-conditions: HCT-15, 72 h
measured-property: pIC50
Here pIC50 is given on a logarithmic scale as minus log10 of the concentration in mol/L.

Example compounds with recorded pIC50:
| compound | pIC50 |
| --- | --- |
| COc1cc(-c2nccn2-c2ccc(Br)cc2)cc(OC)c1OC | 4.93 |
| COc1cc(-c2nccn2-c2ccc(F)cc2)cc(OC)c1OC | 4.16 |
| COc1cccc(-n2ccnc2-c2cc(OC)c(OC)c(OC)c2)c1 | 4.77 |
| COc1ccc(-n2ccnc2-c2cc(OC)c(OC)c(OC)c2)cc1N | 7.00 |
| COc1ccc(-n2ccnc2-c2cc(OC)c(OC)c(OC)c2)cc1[N+](=O)[O-] | 6.00 |
| COc1ccc(-n2ccnc2-c2cc(OC)c(OC)c(OC)c2)cc1 | 5.89 |

Provide only the value of recorded pIC50 for COc1ccc(/C=C\c2cc(OC)c(OC)c(OC)c2)cc1O [COMBRETASTATIN A4] 8.49

###

Tested on: HCT-15
assay: Antiproliferative activity against human HCT15 cells assessed as reduction in cell viability after 72 hrs by MTT assay
Assay type: functional, cell-based
recorded-conditions: HCT-15, 72 h
# key: entry, value: IC50
Give just the numeric value; µM need not be written.

Example compounds with recorded IC50:
| smiles-string | study-target | measured |
| --- | --- | --- |
| COc1cc(-c2nccn2-c2cccc(C)c2)cc(OC)c1OC | HCT-15 | 1.6 |
| COc1cc(-c2nccn2-c2cccc3ccccc23)cc(OC)c1OC | HCT-15 | 25.4 |
| COc1cc(-c2nccn2-c2ccc3[nH]ccc3c2)cc(OC)c1OC | HCT-15 | 4.6 |
| COc1cc(-c2nccn2-c2ccc3cc[nH]c3c2)cc(OC)c1OC | HCT-15 | 4 |
| COc1cc(-c2nccn2-c2ccc(C)cc2)cc(OC)c1OC | HCT-15 | 0.8 |

Provide only the value of recorded IC50 for COc1ccc(NC(=O)c2cc(OC)c(OC)c(OC)c2)cc1N 6.5

###

Test system: MDA-MB-231
assay: Antiproliferative activity against human MDA-MB-231 cells assessed as reduction in cell viability after 72 hrs by MTT assay
Type: functional, cell-based
recorded-conditions: MDA-MB-231, 72 h
measured-property: pIC50
Here pIC50 is given on a logarithmic scale as minus log10 of the concentration in mol/L.

Example compounds with recorded pIC50:
| smiles-string | measured-property | measured |
| --- | --- | --- |
| COc1cc(-c2nccn2-c2ccc3cc[nH]c3c2)cc(OC)c1OC | pIC50 | 5.12 |
| COc1cc(-c2nccn2-c2ccc3sccc3c2)cc(OC)c1OC | pIC50 | 4.77 |
| COc1cc(-c2nccn2-c2ccc(C)cc2)cc(OC)c1OC | pIC50 | 5.39 |
| COc1ccc(-n2ccnc2-c2cc(OC)c(OC)c(OC)c2)cc1 | pIC50 | 5.57 |
| COc1cc(-c2nccn2-c2cccc3ccccc23)cc(OC)c1OC | pIC50 | 5.10 |

Query compound follows.
Write pIC50 of COc1cc(-c2nccn2-c2ccc(F)cc2)cc(OC)c1OC ; system used: MDA-MB-231 4.42

###

Test system: HCT-15
assay: Antiproliferative activity against human HCT15 cells assessed as reduction in cell viability after 72 hrs by MTT assay
Format: functional, cell-based
recorded-conditions: HCT-15, 72 h
measured-property: IC50

| smiles-string | study-target | measured |
| --- | --- | --- |
| COc1cc(-c2nccn2C(C)C)cc(OC)c1OC | HCT-15 | > 100 µM |

Provide only the value of recorded IC50 for COc1ccc(OC(=O)c2cc(OC)c(OC)c(OC)c2)cc1N > 100 µM

Provide only the value of recorded IC50 for COc1ccc(NC(=O)c2cc(OC)c(OC)c(OC)c2)cc1[N+](=O)[O-] 17.6 µM

Provide only the value of recorded IC50 for COc1cc(-c2nccn2-c2ccc3sccc3c2)cc(OC)c1OC 3.3 µM

Provide only the value of recorded IC50 for COc1ccc(C(=O)Nc2cc(OC)c(OC)c(OC)c2)cc1[N+](=O)[O-] 2 µM

###

Test system: HeLa
assay: Antiproliferative activity against human HeLa cells assessed as reduction in cell viability after 72 hrs by MTT assay
Type: functional, cell-based
hey, just use 1 (yes) if measured IC50 is less than 1 µM, otherwise 0 (no)

Some entries whose results are on file:
| smiles-string | class-assignment |
| --- | --- |
| COc1ccc(C(=O)Nc2cc(OC)c(OC)c(OC)c2)cc1[N+](=O)[O-] | 0 (no) |
| COc1cc(-c2nccn2-c2ccc3[nH]ccc3c2)cc(OC)c1OC | 0 (no) |
| COc1ccc(-n2ccnc2-c2cc(OC)c(OC)c(OC)c2)cc1N | 1 (yes) |
| COc1cc(-c2nccn2-c2ccc3cc[nH]c3c2)cc(OC)c1OC | 0 (no) |
| COc1ccc(OC(=O)c2cc(OC)c(OC)c(OC)c2)cc1[N+](=O)[O-] | 0 (no) |
| COc1cc(-c2nccn2S(=O)(=O)c2ccc(C)cc2)cc(OC)c1OC | 0 (no) |
| COc1cc(-c2nccn2-c2ccc(F)cc2)cc(OC)c1OC | 0 (no) |
| COc1ccc(C(=O)Oc2cc(OC)c(OC)c(OC)c2)cc1[N+](=O)[O-] | 0 (no) |
| COc1cc(-c2nccn2C)cc(OC)c1OC | 0 (no) |
| COc1ccc(NC(=O)c2cc(OC)c(OC)c(OC)c2)cc1N | 0 (no) |

Identify whether the compound COc1cc(-c2nccn2-c2cccc(C)c2)cc(OC)c1OC records IC50 below 1 µM. 0 (no)

Identify whether the compound COc1cc(-c2nccn2-c2ccc(C)cc2)cc(OC)c1OC records IC50 below 1 µM. 1 (yes)

Identify whether the compound COc1cc(-c2nccn2CC(C)C)cc(OC)c1OC records IC50 below 1 µM. 0 (no)

Identify whether the compound COc1ccc(-n2ccnc2-c2cc(OC)c(OC)c(OC)c2)cc1O records IC50 below 1 µM. 1 (yes)

Identify whether the compound COc1cc(-c2nccn2-c2ccc(Br)cc2)cc(OC)c1OC records IC50 below 1 µM. 0 (no)

Identify whether the compound COc1cc(-c2nccn2-c2ccc3sccc3c2)cc(OC)c1OC records IC50 below 1 µM. 0 (no)

Identify whether the compound COc1ccc(OC(=O)c2cc(OC)c(OC)c(OC)c2)cc1N records IC50 below 1 µM. 0 (no)

Identify whether the compound COc1cccc(-n2ccnc2-c2cc(OC)c(OC)c(OC)c2)c1 records IC50 below 1 µM. 0 (no)

Identify whether the compound CCn1ccnc1-c1cc(OC)c(OC)c(OC)c1 records IC50 below 1 µM. 0 (no)

Identify whether the compound COc1ccc(NC(=O)c2cc(OC)c(OC)c(OC)c2)cc1[N+](=O)[O-] records IC50 below 1 µM. 0 (no)

Identify whether the compound COc1cc(-c2nccn2S(=O)(=O)c2ccccc2)cc(OC)c1OC records IC50 below 1 µM. 0 (no)

Identify whether the compound COc1cc(-c2nccn2C(C)C)cc(OC)c1OC records IC50 below 1 µM. 0 (no)

Identify whether the compound COc1ccc(/C=C\c2cc(OC)c(OC)c(OC)c2)cc1O records IC50 below 1 µM. 1 (yes)
